pIC50: −log10 of the molar value.
Measurement record for Cruzipain (Trypanosoma cruzi); quantity recorded: pIC50.
METRIC: pIC50

COc1cccc(/C(C)=N/N=C(/N)S)c1: 2.83
CC/C(=N\N=C(\N)S)c1cccc(Cl)c1: 4.63

I. C/C(=N\NC(N)=S)c1cccc(Cl)c1
II. N/C(S)=N/N=C/c1ccc(Cl)c(Cl)c1
Q: Out of I and II , name the one with the higher pIC50. Select an item and report its label.
Ans: II

Cited source: ChEMBL document CHEMBL5143642
